Catalogue of molecules with associated cell viability
# Test system: OCI-AML2;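 further: after 48 h exposure read by CellTiter-Glo luminescence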
# Experiment: cell viability relative to vehicle control; higher = less cytotoxic
# Recorded Conditions: 10 µM; SRSF2 genotype: P95H/wt
Report the value in % with no unit label.

Lookup: Recorded cell viability of COc1ccccc1S(=O)(=O)Nc1ccc2c(c1)CN(C)C(=O)N2 , please.
Found: 27.1

Lookup: Next up: C[C@H](CS)C(=O)N1CCC[C@H]1C(=O)O [Captopril (Capoten)]
Found: 97.7

Lookup: Entry C[C@@H]1COCCN1c1cc(C2([S@](C)(=N)=O)CC2)nc(-c2cc[nH]c3nccc2-3)n1 please
Found: 10.6

Lookup: Now give it for CCOC(=O)c1[nH]c2cc(Cl)ccc2c1C(C(=O)NC(C)(C)C)N(C=O)Cc1ccc(Cl)cc1 (centres undefined) too.
Found: 77.3

Lookup: Lookup CC(C)(O)CC(=O)NCCn1ccc2ncnc(Nc3ccc(Oc4cccc(C(F)(F)F)c4)c(Cl)c3)c21
Found: 74.8

Lookup: Continue with CC(C)CCNC(=O)[C@H](CC(C)C)NC(=O)[C@H]1O[C@@H]1C(=O)O [Loxistatin Acid (E-64C)]
Found: 106

Lookup: Field entry: O=C(Nc1cccc(Cl)c1)c1ccccn1
Found: 96.2

Lookup: Proceed to COc1ccc2cc(C(=O)O)ccc2c1 [6-Methoxy-2-naphthoic acid]
Found: 89.4

Lookup: O=c1cc(N2CCOCC2)oc2c(-c3cccc4c3sc3ccccc34)cccc12 ?
Found: 52.5

Data provenance is the supplement of paper PMC10981050.
